# Experimental system: ABHD6 (Mus musculus)
# Construct: Brain; from tissue; host or cells: mouse brain proteome
# Sequence (Q8R2Y0 1-336): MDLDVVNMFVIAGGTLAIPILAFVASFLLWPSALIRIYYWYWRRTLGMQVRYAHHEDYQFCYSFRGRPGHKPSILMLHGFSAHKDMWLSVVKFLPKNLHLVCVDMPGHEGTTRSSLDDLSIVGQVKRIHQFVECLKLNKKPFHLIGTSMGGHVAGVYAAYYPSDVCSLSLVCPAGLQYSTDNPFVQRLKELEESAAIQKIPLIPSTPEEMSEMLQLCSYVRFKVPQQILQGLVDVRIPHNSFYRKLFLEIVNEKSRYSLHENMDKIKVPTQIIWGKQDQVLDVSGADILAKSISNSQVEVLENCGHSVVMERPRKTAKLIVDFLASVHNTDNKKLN
# Assay details: In vitro competitive activity-based protein profiling, mouse brain proteome (ABHD6)
# Format: biochemical
# Conditions: mouse brain proteome; concentration not given (μM)

Molecule: CC(=O)N1CC2CN(c3cc(C(F)(F)F)ccc3CN3CCN(C(=O)OC(C(F)(F)F)C(F)(F)F)CC3)CC2C1 (stereo not shown) [Example 200]
% Inh ABHD6 Brain (Mouse, μM): # (# is ≤25%)

Molecule: O=C(OC(C(F)(F)F)C(F)(F)F)N1CCC2(CCCN2Cc2cc(Cl)cc(C3(C(=O)O)CCCC3)c2)CC1 [Example 134]
% Inh ABHD6 Brain (Mouse, μM): # (# is ≤25%)

Molecule: O=C(O)CN1CC2(CCN(c3cc(C(F)(F)F)ccc3CN3CCCC34CCN(C(=O)OC(C(F)(F)F)C(F)(F)F)CC4)CC2)C1 [Example 157]
% Inh ABHD6 Brain (Mouse, μM): # (# is ≤25%)

Molecule: CN1CCCC12CCN(c1cc(Cl)ccc1CN1CCN(C(=O)OC(C(F)(F)F)C(F)(F)F)CC1)CC2 [Example 214]
% Inh ABHD6 Brain (Mouse, μM): # (# is ≤25%)

Molecule: CS(=O)(=O)N1CCC2(CCN(c3cccc(C(F)(F)F)c3CN3CC4(CCN(C(=O)OC(C(F)(F)F)C(F)(F)F)CC4)C3)CC2)C1 [Example 62]
% Inh ABHD6 Brain (Mouse, μM): ### (### is ≥75%)

Molecule: O=C(O)CN1CC2(CCN(c3cc(CN4CCCC45CCN(C(=O)OC(C(F)(F)F)C(F)(F)F)CC5)cc(C(F)(F)F)c3)CC2)C1 [Example 158]
% Inh ABHD6 Brain (Mouse, μM): # (# is ≤25%)

Molecule: O=C(O)CN1CCN(c2cc(C(F)(F)F)ccc2CN2CCCC23CCN(C(=O)OC(C(F)(F)F)C(F)(F)F)CC3)CC1 [Example 3]
% Inh ABHD6 Brain (Mouse, μM): # (# is ≤25%)

Molecule: O=C(O)C1CCN(c2cc(C(F)(F)F)ccc2CN2CC3(CCN(C(=O)OC(C(F)(F)F)C(F)(F)F)CC3)C2)C1 (stereo not shown) [Example 101]
% Inh ABHD6 Brain (Mouse, μM): ### (### is ≥75%)

Molecule: CS(=O)(=O)N1CCC2(CCN(c3cc(Cl)ccc3CN3CCN(C(=O)OC(C(F)(F)F)C(F)(F)F)CC3)CC2)C1 [Example 174]
% Inh ABHD6 Brain (Mouse, μM): # (# is ≤25%)

Molecule: Cc1cc(N2CCOCC2)ccc1CN1CC2(CCN(C(=O)OC(C(F)(F)F)C(F)(F)F)CC2)C1 [Example 82]
% Inh ABHD6 Brain (Mouse, μM): ### (### is ≥75%)

Molecule: Cc1ccccc1CN1CC2(CCN(C(=O)OC(C(F)(F)F)C(F)(F)F)CC2)C1 [Example 91]
% Inh ABHD6 Brain (Mouse, μM): ### (### is ≥75%)

Molecule: Cc1cc(N2CCOCC2)ccc1CN1CCC2(CC1)CN(C(=O)OC(C(F)(F)F)C(F)(F)F)C2 [Example 71]
% Inh ABHD6 Brain (Mouse, μM): ### (### is ≥75%)

Molecule: CN1CCC2(CCN(c3cc(Cl)ccc3CN3CCN(C(=O)OC(C(F)(F)F)C(F)(F)F)CC3)CC2)C1 [Example 177]
% Inh ABHD6 Brain (Mouse, μM): # (# is ≤25%)

Molecule: O=C(O)C1CCCN1C1CCN(c2cc(C(F)(F)F)ccc2CN2CCCC23CCN(C(=O)OC(C(F)(F)F)C(F)(F)F)CC3)CC1 (stereo not shown) [Example 159]
% Inh ABHD6 Brain (Mouse, μM): # (# is ≤25%)

Molecule: O=C(OC(C(F)(F)F)C(F)(F)F)N1CCC2(CC1)CN(Cc1ccccc1C(F)(F)F)C2 [Example 95]
% Inh ABHD6 Brain (Mouse, μM): ### (### is ≥75%)

Molecule: CC(=O)N1CC2(CCN(c3ccccc3CN3CCC34CCN(C(=O)OC(C(F)(F)F)C(F)(F)F)CC4)C2)C1 [Example 228]
% Inh ABHD6 Brain (Mouse, μM): # (# is ≤25%)

Molecule: O=C(O)C1CCN(c2cc(CN3CC4(CCN(C(=O)OC(C(F)(F)F)C(F)(F)F)CC4)C3)cc(C(F)(F)F)c2)C1 (stereo not shown) [Example 104]
% Inh ABHD6 Brain (Mouse, μM): ### (### is ≥75%)

* * *

# Experimental system: ABHD6 (Mus musculus, UniProt Q8R2Y0)
# Construct: Brain; from tissue; host or cells: mouse brain proteome
# Sequence (Q8R2Y0 1-336): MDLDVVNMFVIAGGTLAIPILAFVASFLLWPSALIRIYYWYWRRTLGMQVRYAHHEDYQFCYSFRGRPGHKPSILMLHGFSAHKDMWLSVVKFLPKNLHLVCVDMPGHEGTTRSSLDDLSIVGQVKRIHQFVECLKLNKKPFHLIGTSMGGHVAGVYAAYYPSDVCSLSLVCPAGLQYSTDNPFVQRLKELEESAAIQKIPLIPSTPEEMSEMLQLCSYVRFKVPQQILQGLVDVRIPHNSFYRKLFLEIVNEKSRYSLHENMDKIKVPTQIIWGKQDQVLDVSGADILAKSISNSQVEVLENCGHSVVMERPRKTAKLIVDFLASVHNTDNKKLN
# Assay details: In vitro competitive activity-based protein profiling, mouse brain proteome (ABHD6)
# Format: biochemical
# Conditions: mouse brain proteome; concentration not given (μM)
Recorded metric: % Inh ABHD6 Brain (Mouse, μM)

Molecule: CCN1CCC2(CCN(c3cc(C(F)(F)F)ccc3CN3CCN(C(=O)OC(C(F)(F)F)C(F)(F)F)CC3)CC2)C1 [Example 183]
Experimental system: ABHD6 (Mus musculus, UniProt Q8R2Y0)
Endpoint result: # (# is ≤25%)
--
Molecule: O=C(O)C1CCN(c2cc(Cl)ccc2CN2CC3(CCN(C(=O)OC(C(F)(F)F)C(F)(F)F)CC3)C2)CC1 [Example 122]
Experimental system: ABHD6 (Mus musculus, UniProt Q8R2Y0)
Endpoint result: # (# is ≤25%)
--
Molecule: CC1(C(=O)O)CN(c2cc(CN3CC4(CCN(C(=O)OC(C(F)(F)F)C(F)(F)F)CC4)C3)cc(C(F)(F)F)c2)CCO1 (stereo not drawn) [Example 22]
Experimental system: ABHD6 (Mus musculus, UniProt Q8R2Y0)
Endpoint result: ### (### is ≥75%)
--
Molecule: CS(=O)(=O)N1CCC2(CCN(c3cc(Cl)cc(CN4CCCC45CN(C(=O)OC(C(F)(F)F)C(F)(F)F)C5)c3)CC2)C1 [Example 232]
Experimental system: ABHD6 (Mus musculus, UniProt Q8R2Y0)
Endpoint result: ### (### is ≥75%)
--
Molecule: O=C(OC(C(F)(F)F)C(F)(F)F)N1CCC2(CCN(Cc3ccc(Cl)cc3N3CCCCC3)CC2)C1 [Example 191]
Experimental system: ABHD6 (Mus musculus, UniProt Q8R2Y0)
Endpoint result: # (# is ≤25%)
--
Molecule: O=C(O)[C@H]1CCCN1C1CCN(c2cc(C(F)(F)F)ccc2CN2CCCC23CCN(C(=O)OC(C(F)(F)F)C(F)(F)F)CC3)CC1 [Example 160]
Experimental system: ABHD6 (Mus musculus, UniProt Q8R2Y0)
Endpoint result: # (# is ≤25%)
--
Molecule: O=C(OC(C(F)(F)F)C(F)(F)F)N1CCC2(CC1)CN(Cc1ccc(N3CCOCC3)cc1)C2 [Example 81]
Experimental system: ABHD6 (Mus musculus, UniProt Q8R2Y0)
Endpoint result: ### (### is ≥75%)
--
Molecule: O=C(OC(C(F)(F)F)C(F)(F)F)N1CCC2(CC1)CCN(C(=O)c1ccc(C(F)(F)F)cc1Cl)C2 [Example 119]
Experimental system: ABHD6 (Mus musculus, UniProt Q8R2Y0)
Endpoint result: ### (### is ≥75%)
--
Molecule: O=C(OC(C(F)(F)F)C(F)(F)F)N1CC2(CCN(Cc3cccc(N4CCCC4)c3)CC2)C1 [Example 77]
Experimental system: ABHD6 (Mus musculus, UniProt Q8R2Y0)
Endpoint result: ### (### is ≥75%)
--
Molecule: CC(=O)N1CCN(c2cccc(Cl)c2CN2CC3(CCN(C(=O)OC(C(F)(F)F)C(F)(F)F)CC3)C2)CC1 [Example 49]
Experimental system: ABHD6 (Mus musculus, UniProt Q8R2Y0)
Endpoint result: ### (### is ≥75%)
--
Molecule: CS(=O)(=O)N1CCC2(CCN(c3ccccc3CN3CCN(C(=O)OC(C(F)(F)F)C(F)(F)F)CC3)C2)C1 (stereo not drawn) [Example 165]
Experimental system: ABHD6 (Mus musculus, UniProt Q8R2Y0)
Endpoint result: # (# is ≤25%)
--
Molecule: Cc1cccc(CN2CC3(CCN(C(=O)OC(C(F)(F)F)C(F)(F)F)CC3)C2)c1 [Example 86]
Experimental system: ABHD6 (Mus musculus, UniProt Q8R2Y0)
Endpoint result: ### (### is ≥75%)
--
Molecule: COc1ccc(CN2CC3(CCN(C(=O)OC(C(F)(F)F)C(F)(F)F)CC3)C2)cc1 [Example 85]
Experimental system: ABHD6 (Mus musculus, UniProt Q8R2Y0)
Endpoint result: ### (### is ≥75%)
--
Molecule: O=C(O)CN1CC2CC1CN2c1cc(C(F)(F)F)ccc1CN1CCCC12CCN(C(=O)OC(C(F)(F)F)C(F)(F)F)CC2 (stereo not drawn) [Example 126]
Experimental system: ABHD6 (Mus musculus, UniProt Q8R2Y0)
Endpoint result: # (# is ≤25%)
--
Molecule: O=C(OC(C(F)(F)F)C(F)(F)F)N1CCC2(CC1)CN(Cc1ccccc1F)C2 [Example 98]
Experimental system: ABHD6 (Mus musculus, UniProt Q8R2Y0)
Endpoint result: ### (### is ≥75%)
--
Molecule: CN(Cc1ccc(Cl)cc1C1(C(=O)O)CCCC1)C1(C)CCN(C(=O)OC(C(F)(F)F)C(F)(F)F)CC1 [Example 142]
Experimental system: ABHD6 (Mus musculus, UniProt Q8R2Y0)
Endpoint result: # (# is ≤25%)
--
Molecule: O=C(OC(C(F)(F)F)C(F)(F)F)N1CCC2(CC1)CN(Cc1cccc(C(F)(F)F)c1)C2 [Example 89]
Experimental system: ABHD6 (Mus musculus, UniProt Q8R2Y0)
Endpoint result: ### (### is ≥75%)
